Quick reference for IC50 among some molecules
Experimental Target: T. brucei soluble vacuolar pyrophosphatase
Experiment Description: T. brucei soluble vacuolar pyrophosphatase inhibition
Condition Set: Table 5; read-out: (9) T. brucei soluble vacuolar pyrophosphatase IC50
Description: We have obtained data for selected bisphosphonate compounds against parasites including Trypanosoma brucei, Trypanosoma cruzi, and Leishmania major. […] See Table 5 (in some instances, the same data depicted elsewhere herein, e.g., in Table 1, may be presented again to facilitate comparative analysis).
// return numeric value only (unit: µM, not printed)

Worked cases, answers included:
O=P([O-])(O)C(O)(C[n+]1cccc(-c2ccccc2)c1)P(=O)(O)O (stereo not drawn): 35
O=P([O-])(O)C(O)(C[n+]1cccc(Cc2ccccc2)c1)P(=O)(O)O (stereo not drawn): 70

Next molecule, please.
// query Given the entry Cc1cccc(Cc2ccc[n+](CC(O)(P(=O)([O-])O)P(=O)(O)O)c2)c1 (stereo not drawn) , report its measured IC50.
// result 78

----------
Experimental Target: human FPPS (Homo sapiens)
Sequence (P14324 1-419): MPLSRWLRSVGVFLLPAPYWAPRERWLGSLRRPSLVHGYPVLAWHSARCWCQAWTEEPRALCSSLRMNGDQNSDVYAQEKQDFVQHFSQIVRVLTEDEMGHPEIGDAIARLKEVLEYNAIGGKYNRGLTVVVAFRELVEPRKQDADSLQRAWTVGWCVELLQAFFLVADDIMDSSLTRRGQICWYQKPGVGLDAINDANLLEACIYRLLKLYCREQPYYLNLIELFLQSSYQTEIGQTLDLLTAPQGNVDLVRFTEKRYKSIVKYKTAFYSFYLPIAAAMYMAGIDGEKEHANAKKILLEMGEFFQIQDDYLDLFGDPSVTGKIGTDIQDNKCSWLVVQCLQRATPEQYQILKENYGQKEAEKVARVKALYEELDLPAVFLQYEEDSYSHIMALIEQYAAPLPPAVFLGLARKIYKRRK
Experiment Description: human FPPS assay
Type: biochemical
Condition Set: Table 4; read-out: (2) human FPPS IC50
Measurement Label: pIC50
Conceptually, pIC50 converts a concentration in mol/L into minus its log10.

CC([n+]1ccccc1)C(O)(P(=O)([O-])O)P(=O)(O)O (single isomer, unassigned) [Compound 591]: 4.54
O=P([O-])(O)C(O)(C[n+]1cccc(-c2cccc(-c3ccccc3)c2)c1)P(=O)(O)O (stereo not shown) [Compound 364]: 4.43
Cc1cccc(Cc2ccc[n+](CC(O)(P(=O)([O-])O)P(=O)(O)O)c2)c1 (stereo not shown) [Compound 344]: 4.77

Next compound, please.
// query Given the entry O=P([O-])(O)C(C[n+]1cccc(Cl)c1)P(=O)(O)O (stereo not shown) [Compound 526] , report its measured pIC50.
// result 5.92

----------
System: Vγ2Vδ2 T cells
Experiment Description: gammadelta T cell stimulation (TNF-α release assay)
Type: cell-based, human
Condition Set: Table 3, additional testing; read-out: gammadelta T cell stimulation EC50
true (1) if EC50 is below 5 µM. false (0) if not; exact matches included in false (0).

O=P([O-])(O)C(C[n+]1ccc(Cc2ccccc2)cc1)P(=O)(O)O (stereo not drawn) [Compound 481]: false (0)

// query Find out if reported EC50 for CCc1ccc[n+](CC(P(=O)([O-])O)P(=O)(O)O)c1 (stereo not drawn) [Compound 475] is less than 5 µM
// result true (1)

// query Find out if reported EC50 for CCc1ccc[n+](CC(O)(P(=O)([O-])O)P(=O)(O)O)c1 (stereo not drawn) [Compound 444] is less than 5 µM
// result true (1)

// query Find out if reported EC50 for CCCCc1ccc[n+](CC(O)(P(=O)([O-])O)P(=O)(O)O)c1 (stereo not drawn) [Compound 445] is less than 5 µM
// result true (1)

// query Find out if reported EC50 for O=P([O-])(O)C(C[n+]1ccc2ccccc2c1)P(=O)(O)O (stereo not drawn) [Compound 473] is less than 5 µM
// result false (0)

// query Find out if reported EC50 for O=P([O-])(O)C(O)(C[n+]1ccc2ccccc2c1)P(=O)(O)O (stereo not drawn) [Compound 398] is less than 5 µM
// result false (0)

// query Find out if reported EC50 for O=P([O-])(O)C(C[n+]1ccccc1)P(=O)(O)O (stereo not drawn) [Compound 470] is less than 5 µM
// result true (1)

// query Find out if reported EC50 for O=P([O-])(O)C(C[n+]1cccc(Cc2ccccc2)c1)P(=O)(O)O (stereo not drawn) [Compound 480] is less than 5 µM
// result false (0)
